# test_system: T1, recombinant human ErbB3 protein (R&D systems) (human, UniProt P21860 20-643)
# T1 construct: Bought recombinant protein; also called HER3
# protocol_notes: BLI (Octet QK384), human ErbB3 immobilized on AR2G sensor, IgG at 12.5-50 nM
Measured kon by item
Return type: number; implicit unit M⁻¹ s⁻¹.

# binder, kon, M⁻¹ s⁻¹
measured = [
    ("451M1 (antibody, V domains shown, IgG1 (Selexis 085 vector, CHO)) VH: EVQLLESGGGLVQPGGSLRLSCAASGFTFSDYDMSWVRQAPGKGLEWVSAIYYDSGSIYYADSAKGRFTISRDNSKNTLYLQMNSLRAEDTAVYYCAKDRLFMSDSTFDYWGQGTLVTVSS VL: QSVLTQPPSASGTPGQRVTISCSGSPSNIGNNSVTWYQQLPGTAPKLLIYYDSHRPSGVPDRFSGSKSGTSASLAISGLRSEDEADYYCGSWDASLNGYVFGGGTKLTVLG", "1.24e+06"),
    ("472M1 (antibody, V domains shown, IgG1 (Selexis 085 vector, CHO)) VH: EVQLLESGGGLVQPGGSLRLSCAASGFTFSWYDLSWVRQAPGKGLEWVSGISYDGGNTYYADSVKGRFTISRDNSKNTLYLQMNSLRAEDTAVYYCARDPSWCLQDLCYYADGMDVWGQGTLVTVSS VL: QSVLTQPPSASGTPGQRVTISCSGSSSNIGSNSVSWYQQLPGTAPKLLIYADSNRPSGVPDRFSGSKSGTSASLAISGLRSEDEADYYCGSWDYSLSGYVFGGGTKLTVLG", "1.39e+06"),
]

From here, focus on the item given below.
Summary for this binder, 442M5 (antibody, V domains shown, IgG1 (Selexis 085 vector, CHO)) VH: EVQLLESGGGLVQPGGSLRLSCAASGFTFSDYDMSWVRQAPGKGLEWVSTIDLDSGSIYYADSVQGRFTISRDNSKNTLYLQMNSLRAEDTAVYYCAKDLHMGPEGPFDYWGQGTLVTVSS VL: QSVLTQPPSASGTPGQRVTISCSGSSSNIGSNSVSWYQQLPGTAPKLLIYSDNHRPSGVPDRFSGSKSGTSASLAISGLRSEDEADYYCHAWDSSLWGDVFGGGTKLTVLG : kon is 665000
